All values here come from ChEMBL document CHEMBL5058577.

# Lookup of reported Population Mitotic Cells (%) keyed by entry
Tested on: U2OS
ASSAY REMARKS: Multiplex assay against U2OS
Type: toxicity, cell-based
DETAILS: human, 48 h, 1 µM, compound concentration 1 uM, replicate 2
Kindly answer with a numeric value in %, unit omitted.

Observe how each entry below is paired with its result.
1) COc1cc(C(=O)N2CC[C@@H](O)[C@@H](N)C2)cc2nc(-c3cc4ccccc4n3CC3CC3)n(C)c12.Cl | 23
2) CC(C)(O)C(=O)N1CCN(c2ccc(C(F)(F)F)c(C3=C(c4c[nH]c5ccccc45)C(=O)NC3=O)c2)CC1 | 14
3) COC(c1ccccc1)(c1ccccc1)[C@H](Oc1nc(C)cc(C)n1)C(=O)O | 6

Entry under review: `COc1cc(OC2CCN(C(C)=O)CC2)ccc1C(=O)N1CCC(N2C(=O)OCc3ccccc32)CC1` . Reported Population Mitotic Cells (%)?
35
